# Test system: PXR:RXRa (NR concentration 270 nM, RXRa partner concentration 90 nM)
# assay-overview: PBM binding z-score (relative to random genomic background probes); higher = stronger binding; sequences stand for … in GC…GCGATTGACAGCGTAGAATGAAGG
Class Satisfied: PBM binding z-score at least 2. Class Not satisfied: PBM binding z-score below 2.

Exercise: Answer whether PBM binding z-score of "CCTAACGGGTCACTCCAGGTTATAGCATCGGAGT" is greater than or equal to 2.
Key: Satisfied

Exercise: Answer whether PBM binding z-score of "CATACTAGGTCACGAAAGGTCAAAGTCGAATGAC" is greater than or equal to 2.
Key: Satisfied

Exercise: Answer whether PBM binding z-score of "GATACAGGGTCAGCTAGAGGCCGGAGTATGGAAA" is greater than or equal to 2.
Key: Satisfied

Exercise: Answer whether PBM binding z-score of "TAGCCTAGGTCATTGGGACAGTATAGTACGCATC" is greater than or equal to 2.
Key: Not satisfied

Exercise: Answer whether PBM binding z-score of "CGAACTAGGTCAAGGACAGTGAATCTCCGCACGC" is greater than or equal to 2.
Key: Not satisfied

Exercise: Answer whether PBM binding z-score of "TCATATAGCTAATACAGGTGAAAGTCGGCATCTA" is greater than or equal to 2.
Key: Not satisfied
